# testTarget: Torsin-1A-interacting protein 1 (Homo sapiens)
# experimentSummary: LAP1 binders from COS7 cell lysate, primary screen, small-molecule microarray, 635/667 nm fluorescence (AID 1116)
# experimentalConditions: COS7-hLAP1 lysate binding, 635 nm fluorescence, higher = more signal
measure: composite z-score
Give bare numbers.

INSERT INTO measurements (compound, number) VALUES
  ('C=C(C)[C@@H]1CC=C(C(O)C2C=CC3C(=O)N(c4ccccc4)C(=O)C3N2Nc2ccccc2)CC1 (stereo partly drawn)', 1.79),
  ('C=CCOC(=O)[C@H]1[C@@H]2C(=O)O[C@@H](c3ccccc3)[C@@H](c3ccccc3)N2[C@@H](c2ccc(OCCOC(=O)[C@H]3C[C@H]4C(=O)N[C@@H](CCCC[N+](C)(C)C)C(=O)N4[C@H]3c3ccc(O)cc3)cc2)[C@]12C(=O)Nc1ccc(I)cc12', 0.218);

We now examine a further compound.
Give composite z-score for this entry on Torsin-1A-interacting protein 1 (Homo sapiens): COC(=O)[C@H](Cc1ccccc1)N[C@@H](/C=C/C1CC1)[C@H](O)Cc1ccccc1
0.729
